Data origin, for the record: ChEMBL document CHEMBL5096171

Target: Glutamate carboxypeptidase 2 (Homo sapiens)
Test: Inhibition of PSMA derived from human LNCaP cell lysate assessed as inhibition of NAAG hydrolysis incubated for 2 hrs in presence of NAAG by Amplex Red assay
Would you mind telling me the reported IC50 of each entry?
Numbers only, in nM.

Quick one: give me IC50 for each item below, same order please.
1. [N-]=[N+]=NCCCNC(=O)[C@H](Cc1ccccc1)NC(=O)[C@H](Cc1ccccc1)NC(=O)CCC(=O)NCCCCCC(=O)N(CCCC[C@H](NC(=O)N[C@@H](CCC(=O)O)C(=O)O)C(=O)O)Cc1ccc(Cl)cc1F
2. [N-]=[N+]=NCCCNC(=O)[C@H](Cc1ccccc1)NC(=O)[C@H](Cc1ccccc1)NC(=O)CCC(=O)NCCCCCC(=O)N(CCCC[C@H](NC(=O)N[C@@H](CCC(=O)O)C(=O)O)C(=O)O)Cc1ccc(Cl)cc1
3. [N-]=[N+]=NCCCNC(=O)[C@@H](Cc1ccccc1)NC(=O)[C@@H](Cc1ccccc1)NC(=O)CCC(=O)NCCCCCC(=O)N(CCCC[C@H](NC(=O)N[C@@H](CCC(=O)O)C(=O)O)C(=O)O)Cc1ccc(Br)cc1
4. [N-]=[N+]=NCCCNC(=O)[C@H](Cc1ccc(O)cc1)NC(=O)[C@H](Cc1ccccc1)NC(=O)CCC(=O)NCCCCCC(=O)N(CCCC[C@H](NC(=O)N[C@@H](CCC(=O)O)C(=O)O)C(=O)O)Cc1ccc(Cl)c(F)c1

Result block:
1. 43
2. 55
3. 319
4. 62

Quick one: give me IC50 for each item below, same order please.
1. [N-]=[N+]=NCCCNC(=O)[C@@H](Cc1ccc(O)c(Br)c1)NC(=O)[C@@H](Cc1ccccc1)NC(=O)CCC(=O)NCCCCCC(=O)N(CCCC[C@H](NC(=O)N[C@@H](CCC(=O)O)C(=O)O)C(=O)O)Cc1ccc(Br)cc1
2. [N-]=[N+]=NCCCNC(=O)[C@@H](Cc1ccccc1)NC(=O)[C@@H](Cc1ccccc1)NC(=O)CCC(=O)NCCCCCC(=O)N(CCCC[C@H](NC(=O)N[C@@H](CCC(=O)O)C(=O)O)C(=O)O)Cc1ccc(Cl)c(F)c1
3. [N-]=[N+]=NCCCNC(=O)[C@H](Cc1ccccc1)NC(=O)[C@H](Cc1ccccc1)NC(=O)CCC(=O)NCCCCCC(=O)N(CCCC[C@H](NC(=O)N[C@@H](CCC(=O)O)C(=O)O)C(=O)O)Cc1ccccc1
4. [N-]=[N+]=NCCCNC(=O)[C@H](Cc1ccccc1)NC(=O)[C@H](Cc1ccccc1)NC(=O)CCC(=O)NCCCCCC(=O)N(CCCC[C@H](NC(=O)N[C@@H](CCC(=O)O)C(=O)O)C(=O)O)Cc1cccc(Cl)c1
5. [N-]=[N+]=NCCCNC(=O)[C@H](Cc1ccc(O)cc1)NC(=O)[C@H](Cc1ccccc1)NC(=O)CCC(=O)NCCCCCC(=O)N(CCCC[C@H](NC(=O)N[C@@H](CCC(=O)O)C(=O)O)C(=O)O)Cc1ccc(Cl)cc1

Result block:
1: 89; 2: 294; 3: 28; 4: 38; 5: 46

Quick one: give me IC50 for each item below, same order please.
1. [N-]=[N+]=NCCCNC(=O)[C@H](Cc1ccccc1)NC(=O)[C@H](Cc1ccccc1)NC(=O)CCC(=O)NCCCCCC(=O)N(CCCC[C@H](NC(=O)N[C@@H](CCC(=O)O)C(=O)O)C(=O)O)Cc1ccc(Cl)c(F)c1
2. [N-]=[N+]=NCCCNC(=O)[C@@H](Cc1ccc(O)cc1)NC(=O)[C@@H](Cc1ccccc1)NC(=O)CCC(=O)NCCCCCC(=O)N(CCCC[C@H](NC(=O)N[C@@H](CCC(=O)O)C(=O)O)C(=O)O)Cc1ccc(Cl)cc1
3. [N-]=[N+]=NCCCNC(=O)[C@H](Cc1ccc(O)cc1)NC(=O)[C@H](Cc1ccccc1)NC(=O)CCC(=O)NCCCCCC(=O)N(CCCC[C@H](NC(=O)N[C@@H](CCC(=O)O)C(=O)O)C(=O)O)Cc1cccc(Cl)c1
4. [N-]=[N+]=NCCCNC(=O)[C@@H](Cc1ccccc1)NC(=O)[C@@H](Cc1ccccc1)NC(=O)CCC(=O)NCCCCCC(=O)N(CCCC[C@H](NC(=O)N[C@@H](CCC(=O)O)C(=O)O)C(=O)O)Cc1cccc(Cl)c1

Result block:
1: 63; 2: 27; 3: 3; 4: 46

----------
Tested on: PC-3
Test: Cytotoxicity against human PC-3 cells assessed as reduction in cell viability incubated for 5 days by MTT assay
Format: functional
Conditions: PC-3, 120 h, time 5 day
reportedProperty: CC50

Query block: Query: CC50; subject: [N-]=[N+]=NCCCNC(=O)[C@H](Cc1ccc(O)cc1)NC(=O)[C@H](Cc1ccccc1)NC(=O)CCC(=O)NCCCCCC(=O)N(CCCC[C@H](NC(=O)N[C@@H](CCC(=O)O)C(=O)O)C(=O)O)Cc1cccc(Cl)c1
Result block: > 100 µM

----------
Would you mind telling me the reported CC50 at 120 h of each entry?
Experiment: Cytotoxicity against human WI-38 VA13 cells assessed as cell growth inhibition incubated for 5 days by MTT assay
Assay type: toxicity, cell-based
Details: time 5 day

Below: 5 molecules and their reported CC50 at 120 h.
smilesRecord	val
[N-]=[N+]=NCCCNC(=O)[C@H](Cc1ccccc1)NC(=O)[C@H](Cc1ccccc1)NC(=O)CCC(=O)NCCCCCC(=O)N(CCCC[C@H](NC(=O)N[C@@H](CCC(=O)O)C(=O)O)C(=O)O)Cc1ccc(Cl)c(F)c1	> 100 µM
[N-]=[N+]=NCCCNC(=O)[C@H](Cc1ccccc1)NC(=O)[C@H](Cc1ccccc1)NC(=O)CCC(=O)NCCCCCC(=O)NCCCC[C@H](NC(=O)N[C@@H](CCC(=O)O)C(=O)O)C(=O)O	> 100 µM
[N-]=[N+]=NCCCNC(=O)[C@H](Cc1ccc(O)cc1)NC(=O)[C@H](Cc1ccccc1)NC(=O)CCC(=O)NCCCCCC(=O)N(CCCC[C@H](NC(=O)N[C@@H](CCC(=O)O)C(=O)O)C(=O)O)Cc1ccc(Cl)c(F)c1	> 100 µM
[N-]=[N+]=NCCCNC(=O)[C@@H](Cc1ccccc1)NC(=O)[C@@H](Cc1ccccc1)NC(=O)CCC(=O)NCCCCCC(=O)N(CCCC[C@H](NC(=O)N[C@@H](CCC(=O)O)C(=O)O)C(=O)O)Cc1ccc(Cl)c(F)c1	> 100 µM
[N-]=[N+]=NCCCNC(=O)[C@H](Cc1ccc(O)cc1)NC(=O)[C@H](Cc1ccccc1)NC(=O)CCC(=O)NCCCCCC(=O)N(CCCC[C@H](NC(=O)N[C@@H](CCC(=O)O)C(=O)O)C(=O)O)Cc1cccc(Cl)c1	> 100 µM

Quick one: give me CC50 at 120 h for each item below, same order please.
1. [N-]=[N+]=NCCCNC(=O)[C@H](Cc1ccccc1)NC(=O)[C@H](Cc1ccccc1)NC(=O)CCC(=O)NCCCCCC(=O)N(CCCC[C@H](NC(=O)N[C@@H](CCC(=O)O)C(=O)O)C(=O)O)Cc1ccc(Cl)cc1F
2. [N-]=[N+]=NCCCNC(=O)[C@H](Cc1ccccc1)NC(=O)[C@H](Cc1ccccc1)NC(=O)CCC(=O)NCCCCCC(=O)N(CCCC[C@H](NC(=O)N[C@@H](CCC(=O)O)C(=O)O)C(=O)O)Cc1ccccc1

Result block:
> 100 µM
> 100 µM

----------
Target: Glutamate carboxypeptidase 2 (Homo sapiens, UniProt Q04609)
Sequence (Q04609 whole entry): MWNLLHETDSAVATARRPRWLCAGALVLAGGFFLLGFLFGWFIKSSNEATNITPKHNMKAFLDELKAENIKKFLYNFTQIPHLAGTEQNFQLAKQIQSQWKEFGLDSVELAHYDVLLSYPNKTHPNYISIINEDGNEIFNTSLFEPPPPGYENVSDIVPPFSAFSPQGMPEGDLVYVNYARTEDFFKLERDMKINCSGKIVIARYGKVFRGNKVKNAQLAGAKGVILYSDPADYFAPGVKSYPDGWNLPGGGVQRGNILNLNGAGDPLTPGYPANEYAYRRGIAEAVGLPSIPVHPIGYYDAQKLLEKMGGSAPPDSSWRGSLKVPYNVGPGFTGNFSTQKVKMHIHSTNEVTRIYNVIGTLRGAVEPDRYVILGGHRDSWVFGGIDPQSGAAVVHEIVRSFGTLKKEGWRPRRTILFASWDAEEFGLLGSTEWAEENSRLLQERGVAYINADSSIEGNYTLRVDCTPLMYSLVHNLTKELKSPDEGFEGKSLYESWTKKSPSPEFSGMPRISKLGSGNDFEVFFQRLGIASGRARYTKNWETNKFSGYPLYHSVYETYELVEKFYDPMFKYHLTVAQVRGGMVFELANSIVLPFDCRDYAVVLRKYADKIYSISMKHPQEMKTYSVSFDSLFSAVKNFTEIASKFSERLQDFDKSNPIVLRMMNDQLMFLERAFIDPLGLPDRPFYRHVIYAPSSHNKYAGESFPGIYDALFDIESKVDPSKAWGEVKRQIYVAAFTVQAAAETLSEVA
Assay: Inhibition of PSMA derived from human LNCaP cell lysate assessed as inhibition of NAAG hydrolysis incubated for 2 hrs in presence of NAAG by Amplex Red assay
reportedProperty: IC50
Give the figure together with its unit, number first.

Below: 4 compounds and their reported IC50.
smilesRecord	measurementTarget	IC50
[N-]=[N+]=NCCCNC(=O)[C@@H](Cc1ccc(O)cc1)NC(=O)[C@@H](Cc1ccccc1)NC(=O)CCC(=O)NCCCCCC(=O)N(CCCC[C@H](NC(=O)N[C@@H](CCC(=O)O)C(=O)O)C(=O)O)Cc1ccc(Cl)c(F)c1	Glutamate carboxypeptidase 2 (Homo sapiens, UniProt Q04609)	108 nM
[N-]=[N+]=NCCCNC(=O)[C@@H](Cc1ccc(O)cc1)NC(=O)[C@@H](Cc1ccccc1)NC(=O)CCC(=O)NCCCCCC(=O)N(CCCC[C@H](NC(=O)N[C@@H](CCC(=O)O)C(=O)O)C(=O)O)Cc1ccc(Br)cc1	Glutamate carboxypeptidase 2 (Homo sapiens, UniProt Q04609)	3160 nM
[N-]=[N+]=NCCCNC(=O)[C@H](Cc1ccccc1)NC(=O)[C@H](Cc1ccccc1)NC(=O)CCC(=O)NCCCCCC(=O)N(CCCC[C@H](NC(=O)N[C@@H](CCC(=O)O)C(=O)O)C(=O)O)Cc1ccc(Br)cc1	Glutamate carboxypeptidase 2 (Homo sapiens, UniProt Q04609)	50 nM
[N-]=[N+]=NCCCNC(=O)[C@@H](Cc1ccc(O)cc1)NC(=O)[C@@H](Cc1ccccc1)NC(=O)CCC(=O)NCCCCCC(=O)N(CCCC[C@H](NC(=O)N[C@@H](CCC(=O)O)C(=O)O)C(=O)O)Cc1cccc(Cl)c1	Glutamate carboxypeptidase 2 (Homo sapiens, UniProt Q04609)	107 nM

Turning now to a further compound:
Query block: Query: IC50; subject: [N-]=[N+]=NCCCNC(=O)[C@@H](Cc1ccc(O)c(Br)c1)NC(=O)[C@@H](Cc1ccccc1)NC(=O)CCC(=O)NCCCCCC(=O)N(CCCC[C@H](NC(=O)N[C@@H](CCC(=O)O)C(=O)O)C(=O)O)Cc1cccc(Cl)c1
Result block: 80 nM
